Assay Explanation: chemical genetic growth profiling, strain panel (AID 1159580);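 further: tested at 20 µM; growth read once vehicle control cultures reached saturation at 30 °C; 1 = growth at the plate median or of vehicle wells; lower values mean less growth of the strain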
Condition Summary: S. cerevisiae deletion strains, growth OD, locus YLR027C, strain aat2, stronger effect = lower value
Among all 5,500 compounds or so, about 2,000 (36%) were called active. Another 18% or so got no clear call; they are omitted. The list shows a part of the results.
# Lookup of reported normalized growth keyed by entry

Some solved entries appear below for comparison.
[[record]]
compound = "COC(=O)[C@@H]1C(O)CC[C@H]2CN3CCc4c([nH]c5ccccc45)[C@@H]3C[C@@H]21 (stereo partly specified)"
readout_value = "1.01 (inactive)"

[[record]]
compound = "S=C=NCc1ccccc1"
readout_value = "0.0701 (active)"

[[record]]
compound = "CNc1ccccc1C(=O)N1CCc2c([nH]c3ccccc23)C1=O"
readout_value = "0.995 (inactive)"

[[record]]
compound = "CC(C)(N=NC(C)(C)C(=N)N)C(=N)N"
readout_value = "1.03 (inactive)"

[[record]]
compound = "CC(C(=O)O)c1ccc2c(c1)[nH]c1ccc(Cl)cc12 (stereo unspecified)"
readout_value = "0.992 (inactive)"


Reported normalized growth of COC(=O)C1[C@H]2C[C@H]3c4[nH]c5ccccc5c4CCN3C[C@@H]2CC[C@@H]1O (stereo partly specified) : 0.988 (inactive)

====

Assay Explanation: chemical genetic growth profiling, strain panel (AID 1159580)
Condition Summary: S. cerevisiae deletion strains, growth OD, locus YFR010W, strain ubp6, stronger effect = lower value
The whole screen tested about 5,500 compounds, of which about 2,000 (36%) were called active. Inconclusive results (about 18%) are left out. The list shows a part of the results.
# Lookup of reported normalized growth keyed by entry
Please give only the number in your answer, with no unit.

Reported normalized growth of NC/C=C/C(=O)O : 1.01

Reported normalized growth of CC[C@@H](CO)NCCN[C@@H](CC)CO : 1

Reported normalized growth of Cc1cc(=O)c2c(O)c(C)c(O)cc2o1 : 1.04

Reported normalized growth of O=C1C[C@@H](c2ccc(O)cc2)Oc2cc(O)cc(O)c21 : 0.924

Reported normalized growth of NCC1CCCCC1CC(=O)O (configuration not stated) : 1.02

Reported normalized growth of O=C1CC(c2ccc(O)c(O)c2)Oc2cc(O)cc(O)c21 (configuration not stated) : 0.97

Reported normalized growth of CC(C)[N+](C)(CCOC(=O)C1c2ccccc2Oc2ccccc21)C(C)C : 0.994

Reported normalized growth of CC(C)[C@H](N)C(=O)OCCOCn1cnc2c(=O)[nH]c(N)nc21 : 0.974

Reported normalized growth of CC(=O)CC(=O)CCC(=O)O : 1.03

Reported normalized growth of COc1cc(O)c2c(=O)cc(C)oc2c1CC=C(C)C : 1

Reported normalized growth of O=[N+]([O-])O[C@H]1CO[C@H]2[C@@H]1OC[C@H]2O[N+](=O)[O-] : 1

Reported normalized growth of COc1ccc(C2CC(=O)c3ccc(OC)cc3O2)cc1 (configuration not stated) : 0.954

====

Assay Explanation: chemical genetic growth profiling, strain panel (AID 1159580)
Condition Summary: S. cerevisiae deletion strains, growth OD, locus YAL026C, strain drs2, stronger effect = lower value
The campaign covered roughly 5,500 compounds. About 2,000 (36%) were called active. About 18% were inconclusive and are not listed. The list shows a part of the results.
The label is Y for normalized growth below 1 and N for normalized growth equal to or exceeding 1.

Examples from the recorded data:
[[record]]
molecule = "CCCCCCCC/C=C/CCCCCCCCOP(=O)([O-])OCC[N+](C)(C)C"
category_label = "Y"

[[record]]
molecule = "CC(C)[N+](C)(CCOC(=O)C1c2ccccc2Oc2ccccc21)C(C)C"
category_label = "N"


Now examine the next entry.
# input Lab log: compare recorded normalized growth with 1; is it strictly lower for COc1ccc(C2CC(=O)c3ccc(OC)cc3O2)cc1 (configuration not stated) ?
# output Y

====

Assay Explanation: chemical genetic growth profiling, strain panel (AID 1159580)
Condition Summary: S. cerevisiae deletion strains, growth OD, locus YMR129W, stronger effect = lower value
About 2,000 (36%) of roughly 5,500 compounds were called active. About 18% were inconclusive and are not listed. The list shows a part of the results.
# Lookup of reported normalized growth keyed by entry
Please give only the number in your answer, with no unit.

Some solved entries appear below for comparison.
[[record]]
compound = "CC1(C)C2CC[C@]3(C)C(C(=O)C=C4[C@@H]5C[C@@](C)(C(=O)O)CC[C@]5(C)CC[C@]43C)[C@@]2(C)CC[C@@H]1O (stereo partly specified)"
readout_value = 1.02

[[record]]
compound = "NC(N)=NOCC[C@H](N)C(=O)O"
readout_value = 1.02


Reported normalized growth of NC/C=C/C(=O)O : 0.973

Reported normalized growth of CCC1(c2ccc(N)cc2)CCC(=O)NC1=O (stereo unspecified) : 0.969

Reported normalized growth of CCC1(C)CC(=O)NC1=O (stereo unspecified) : 0.979

Reported normalized growth of CC1(C)S[C@@H]2[C@H](NC(=O)[C@H](NC(=O)N3CCNC3=O)c3ccccc3)C(=O)N2C1C(=O)O (stereo partly specified) : 0.991

====

# Lookup of reported normalized growth keyed by entry
Assay Explanation: chemical genetic growth profiling, strain panel (AID 1159580);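 further: tested at 20 µM; growth read once vehicle control cultures reached saturation at 30 °C; 1 = growth at the plate median or of vehicle wells; lower values mean less growth of the strain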
Condition Summary: S. cerevisiae deletion strains, growth OD, locus YMR058W, strain fet3, stronger effect = lower value
Hit rate of the full screen: of about 5,500 compounds, about 2,000 (36%) were called active. Another 18% or so got no clear call; they are omitted. The list shows a part of the results.
Please give only the number in your answer, with no unit.

[[record]]
compound = "CO[C@H]1C[C@H](O[C@H]2[C@H](C)[C@@H](OC3O[C@H](C)C[C@H](N(C)C)[C@H]3O)[C@@H](C)C[C@]3(CO3)C(=O)[C@H](C)[C@@H](O)[C@@H](C)[C@@H](C)OC(=O)[C@@H]2C)O[C@@H](C)[C@@H]1O (stereo partly drawn)"
measured_attribute = "normalized growth"
readout_value = 1.01

[[record]]
compound = "OCCN(CCO)c1nc(N2CCCCC2)c2nc(N(CCO)CCO)nc(N3CCCCC3)c2n1"
measured_attribute = "normalized growth"
readout_value = 0.968

[[record]]
compound = "CNc1ccccc1C(=O)N1CCc2c([nH]c3ccccc23)C1=O"
measured_attribute = "normalized growth"
readout_value = 0.994


Now for the compound whose normalized growth we want.
Reported normalized growth of CCCCCCCCCCCCCCCCOP(=O)([O-])OCC[N+](C)(C)C : 0.0574

====

Assay Explanation: chemical genetic growth profiling, strain panel (AID 1159580);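 further: tested at 20 µM; growth read once vehicle control cultures reached saturation at 30 °C; 1 = growth at the plate median or of vehicle wells; lower values mean less growth of the strain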
Condition Summary: S. cerevisiae deletion strains, growth OD, locus YFR010W, strain ubp6
In all, about 5,500 compounds went through this assay and about 2,000 (36%) were called active. About 18% were inconclusive and are not listed. Rule as the data show it: active = normalized growth mostly below about 0.91 (no sharp cut-off); inconclusive = no clear call, values can overlap the other calls; inactive = mostly above about 0.92. This is one part of the list.
Respond using exactly one of the listed classes: 1 (yes) (active), 0 (no) (inactive)

Examples from the recorded data:
[[record]]
molecule = "c1ccc(CC2=NCCN2)cc1"
category_label = "0 (no)"

[[record]]
molecule = "O=C(/C=C/C=C/c1ccc2c(c1)OCO2)N1CCCCC1"
category_label = "0 (no)"

[[record]]
molecule = "CN1CCCC(n2nc(Cc3ccc(Cl)cc3)c3ccccc3c2=O)CC1 (configuration not stated)"
category_label = "0 (no)"

[[record]]
molecule = "CC(C)(C)CC(C)(C)c1ccc(OCCOCC[N+](C)(C)Cc2ccccc2)cc1"
category_label = "1 (yes)"

[[record]]
molecule = "C=CC1=C(C(=O)O)N2C(=O)[C@@H](NC(=O)/C(=N/O)c3csc(N)n3)[C@H]2SC1"
category_label = "0 (no)"

[[record]]
molecule = "O=C(O)c1cc(=O)c2ccc(Cl)cc2[nH]1"
category_label = "0 (no)"

[[record]]
molecule = "COc1ccc(C[C@H]2NC[C@H](O)[C@H]2OC(C)=O)cc1"
category_label = "1 (yes)"

[[record]]
molecule = "CCc1nc(N)nc(N)c1-c1ccc(Cl)cc1"
category_label = "0 (no)"


# input Test call, this molecule: CC(=O)O[C@]1(C(C)=O)CCC2C3C[C@H](C)C4=CC(=O)CC[C@]4(C)C3CC[C@@]21C (some centres not stated)
# output 0 (no)

# input Test call, this molecule: CCOC(=O)c1ncn2c1CN(C)C(=O)c1cc(F)ccc1-2
# output 0 (no)

====

Assay Explanation: chemical genetic growth profiling, strain panel (AID 1159580);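 further: tested at 20 µM; growth read once vehicle control cultures reached saturation at 30 °C; 1 = growth at the plate median or of vehicle wells; lower values mean less growth of the strain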
Condition Summary: S. cerevisiae deletion strains, growth OD, locus YHR142W, strain chs7
Hit rate of the full screen: of about 5,500 compounds, about 2,000 (36%) were called active. Another 18% or so got no clear call; they are omitted. Cut-off read from the data, not from the text of the source: active = normalized growth mostly below about 0.91 (no sharp cut-off); inconclusive = no clear call, values can overlap the other calls; inactive = mostly above about 0.92. This is one part of the list.
Respond using exactly one of the listed classes: y = active, n = inactive

[[record]]
molecule = "CCCCOc1ccc(OCCCN2CCOCC2)cc1"
category_label = "y"

[[record]]
molecule = "c1ccc(CN(CC2=NCCN2)c2ccccc2)cc1"
category_label = "n"

[[record]]
molecule = "CC(C)=CCc1c(O)cc2oc(C)cc(=O)c2c1O"
category_label = "y"

[[record]]
molecule = "Cn1cc[nH]c1=S"
category_label = "n"

[[record]]
molecule = "CC(C)(C)CC(C)(C)c1ccc(OCCOCC[N+](C)(C)Cc2ccccc2)cc1"
category_label = "y"

[[record]]
molecule = "CCCCCCCCCCCCC[N+](C)(C)Cc1ccccc1"
category_label = "y"

[[record]]
molecule = "C1CCc2nnnn2CC1"
category_label = "n"

[[record]]
molecule = "CC(=O)O[C@@](C)(CCC=C(C)C)C1CC=C(C)CC1 (stereo partly specified)"
category_label = "n"

[[record]]
molecule = "c1ccc(CC2=NCCN2)cc1"
category_label = "n"

[[record]]
molecule = "Cc1cc(C(C)(C)CC(C)(C)C)ccc1OCCOCC[N+](C)(C)Cc1ccccc1"
category_label = "y"


# input Test call, this molecule: NC[C@@H]1O[C@H](O[C@@H]2[C@@H](CO)OC(O[C@@H]3[C@@H](O)[C@H](N)C[C@H](N)[C@H]3OC3O[C@H](CN)[C@@H](O)[C@H](O)[C@H]3N)[C@@H]2O)[C@H](N)[C@@H](O)[C@@H]1O (stereo partly specified)
# output n
